Target: MBD of MeCP2 (wild type) (human/mouse (residues 76-167 identical), UniProt P51608 76-167)
Sequence (P51608 76-167): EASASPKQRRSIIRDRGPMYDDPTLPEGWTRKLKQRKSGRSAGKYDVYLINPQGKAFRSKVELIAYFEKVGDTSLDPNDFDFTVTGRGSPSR
Test: EMSA/T4 endonuclease V
Measured endpoint: Kd (nM)
Kindly answer with a numeric value in nM, unit omitted.

# Binder, Kd, nM
data = [
    ("CmCG•mCGG duplex (BDNF promoter III) (dsDNA, 5-methyl-dC at strand 1 pos 12 and strand 2 pos 8) DNA 1: TAGAAGAATTCCGTTCCAGA DNA 2: TCTGGAACGGAATTCTTCTA", 46),
]

Continue with the binder presented below.
Kd in this record for TmCG•mCGA duplex (dsDNA, 5-methyl-dC at strand 1 pos 12 and strand 2 pos 8) DNA 1: TAGAAGAATTTCGTTCCAGA DNA 2: TCTGGAACGAAATTCTTCTA : 75
